assay-comment: qHTS RealTime-Glo MT Cell Viability Assay in HEK293 cells - 32 hour (AID 1224868); also: top concentration of the series differs between compounds; nearly all actives have a fitted effect of over 50% in size
assay-conditions: RealTime-Glo luminescence; series mostly up to 76.8 µM
Records with an inconclusive call do not appear. The source made the active and inactive calls. Calls follow the shape of the dose curve; as a rule, active = well fitted cell-killing curve with a large enough effect in the repeat runs; inconclusive = weak or mixed curves, or effect the other way; inactive = flat fitted curve, though single readings scatter.
Choose one outcome from this list and give only that: True for active, False for inactive

Q: Check the results log: what was the call for "O=CC(=O)c1ccccc1" ?
Ans: False

Q: And the next one, CC(=O)CC(c1ccccc1)c1c(O)c2ccccc2oc1=O (centres undefined) ?
Ans: False

Q: And the next one, "CN(C)CCOC(c1ccccc1)c1ccccc1" ?
Ans: False

Q: And the next one, "Nc1ccc([N+](=O)[O-])cc1O" ?
Ans: False

Q: And the next one, "Nc1c2c(nc3ccccc13)CCCC2" ?
Ans: False

Q: And the next one, "NC(CO)(CO)CO" ?
Ans: False

Q: And the next one, "O=c1[nH]cc(F)c(=O)[nH]1" ?
Ans: False

Q: And the next one, "Oc1ccccc1" ?
Ans: False

Q: And the next one, "CC(=O)C(=O)O" ?
Ans: False
